B1: Cytoplasmic polyadenylation element-binding protein 2, residues 513 to 575; numbered along this chain, Q7Z5Q1 (parent)
chain: KRVEVKPYVLDDQMCDECQGARCGGKFAPFFCANVTCLQYYCEFCWANIHSRAGREFHKPLVK

Variants of: B1
test description: abundance fitness (aPCA) (normalised: wild type 0, dead -1); higher = more abundant; growth selection in yeast, the domain comes from the species named
condition: Homo sapiens
parameter measured: abundance fitness
Please reply with the number alone, leaving off any unit.

[[record]]
alteration = "Q39S"
parameter_measured = "abundance fitness"
recorded_result = 0.016

[[record]]
alteration = "L10W"
parameter_measured = "abundance fitness"
recorded_result = 0.056

[[record]]
alteration = "E43M"
parameter_measured = "abundance fitness"
recorded_result = -0.309

[[record]]
alteration = "Y41L"
parameter_measured = "abundance fitness"
recorded_result = 0.039


What measured abundance fitness goes with `R2Q` ?
-0.028

What measured abundance fitness goes with `A28T` ?
-0.364

What measured abundance fitness goes with `A33Y` ?
0.009

What measured abundance fitness goes with `Q39V` ?
-0.001

What measured abundance fitness goes with `R2K` ?
0.101

What measured abundance fitness goes with `E4M` ?
-0.242

What measured abundance fitness goes with `F30D` ?
-0.318
